The origin of these recorded values is patent US5395840A.

- Test system: smooth muscle cells
- Experimental details: Inhibition of the proliferation of smooth muscle cells (3H-thymidine incorporation)
- Assay type: cell-based
- Applied conditions: Rattus norvegicus, rat aortic smooth muscle cells, stimulated by 10% FCS
pIC50: −log10 of the molar value.
Listed here are compounds together with their documented pIC50.

| Compound | pIC50 |
| --- | --- |
| CCCCc1nc2cc(Br)cnc2n1Cc1ccc(C2CCCCC2C(=O)N[C@H](CO)c2ccccc2)cc1 (stereo partly shown) | 8.40 |
| NC(=O)C(NC(=O)C1CCCCC1c1ccc(Cn2c(C3CC3)nc3cccnc32)cc1)c1ccccc1 (single isomer, unassigned) | 8.15 |
| CCCCc1nc2ccccc2n1Cc1ccc(C2CCCCC2C(=O)N[C@H](CO)c2ccccc2)cc1 (stereo partly shown) | 8.52 |
| O=C(N[C@H](CO)c1ccccc1)C1CCCCC1c1ccc(Cn2c(-c3ccccc3)nc3cccnc32)cc1 (stereo partly shown) | 7.59 |
